Data credit: PubChem BioAssay (NCI)

System: SN12C renal
Test: NCI tumour cell line growth inhibition, 48 h
Metric: TGI

INSERT INTO assay_data (compound, target_system, test_result) VALUES
  ('CCCc1cc2c(=O)c(C(=O)OC)c[nH]c2cc1N(CC)CC', 'SN12C renal', '> 100 µM'),
  ('CC(C)(C)c1cc(C(C)(C)C)c(SS(=O)(=O)O)c(O)c1O', 'SN12C renal', '> 100 µM'),
  ('O=S1CCS(=O)CCS(=O)CC1 (stereo not given)', 'SN12C renal', '> 100 µM'),
  ('O=C(/C=C/c1cccnc1)NCCCCC1CCCN(C(=O)c2ccccc2)C1 (stereo not given)', 'SN12C renal', '> 100 µM'),
  ('Cc1ccc(N=Nc2ccc(O)c(CN(C)C)c2)cc1C', 'SN12C renal', '> 100 µM'),
  ('CC1(CO)OC(n2cc(C(=O)NC(=O)OCc3ccccc3)c(=O)[nH]c2=O)CC1O (stereo not given)', 'SN12C renal', '> 100 µM'),
  ('CC(C)(C)c1nn(-c2ccccc2)c2c1C(=O)CSC(c1ccccc1Cl)N2 (stereo not given)', 'SN12C renal', '14.7 µM'),
  ('C/C(=N/Nc1nc2ccccc2n1C)c1ccccn1', 'SN12C renal', '23 µM'),
  ('CC(C)CC1C(=O)NCCC(NC(=O)C(N)Cc2ccc(O)cc2)C(=O)NC(Cc2ccccc2)C(=O)NC(Cc2ccccc2)NC1=O (stereo not given)', 'SN12C renal', '> 100 µM'),
  ('Nc1c(Br)cc(Br)c2c1[nH]c(=O)c1ccccc12', 'SN12C renal', '> 100 µM'),
  ('CN(C)c1ccc([O][Bi]([Cl])[Cl])cc1', 'SN12C renal', '> 100 µM'),
  ('Cc1ccc(NC(=O)CSc2nc(C)nc3c2sc(=S)n3-c2ccccc2)cc1', 'SN12C renal', '> 10 µM'),
  ('CCN=C(NNc1ccc([N+](=O)[O-])cc1)P(=O)(OC(C)C)OC(C)C', 'SN12C renal', '> 100 µM'),
  ('COC(=O)c1c2c(c(C)[n+]([O-])c1C)C(=O)C=C(NCc1ccc(F)c(Cl)c1)C2=O', 'SN12C renal', '1.28 µM'),
  ('CC[C@H](Nc1nc(NCc2cnc(C)cc2C)c2ncn(C(C)C)c2n1)[C@@H](C)O', 'SN12C renal', '> 100 µM'),
  ('Cn1nc2ccc3nccc(N4CCN(CCO)CC4)c3c2n1', 'SN12C renal', '> 100 µM'),
  ('O=C1CCCCCCCC/C=C\CC(c2ccco2)O1 (stereo not given)', 'SN12C renal', '69.9 µM'),
  ('O=C(NC(CS)C(=O)O)c1cccc2c(=O)c3ccccc3[nH]c12 (stereo not given)', 'SN12C renal', '> 100 µM'),
  ('C#CCC(Cc1cnc2nc(N)nc(N)c2n1)c1ccc(C(=O)N[C@@H](CCC(=O)O)C(=O)O)cc1 (stereo not given in full)', 'SN12C renal', '> 100 µM'),
  ('CN(C)c1ccc(/C=c2/c3ccccc3n3nc4ccccc4c23)cc1', 'SN12C renal', '> 100 µM'),
  ('CCC/C(=N/NC(=O)C(N)=O)C(CC)C(=O)CCC(=O)N(Cc1ccccc1)Cc1ccccc1 (stereo not given)', 'SN12C renal', '> 100 µM'),
  ('O=C(Nc1cccc(Cl)c1)c1ccc(NC2=C(Cl)C(=O)N(Cc3ccccc3)C2=O)cc1', 'SN12C renal', '23 µM'),
  ('Nc1nc(N)c(NC(=O)CCCO)c(=O)[nH]1', 'SN12C renal', '> 100 µM'),
  ('CS/C1=C(\c2ccc(C)cc2)N(c2ccccc2)C(=O)C(=O)N(c2ccccc2)/C(c2ccc(C)cc2)=C(/SC)SS1', 'SN12C renal', '> 100 µM'),
  ('COc1cc(/C=C(\C#N)C(=O)c2ccccc2)ccc1O', 'SN12C renal', '> 100 µM'),
  ('O=c1[nH]/c(=C/c2ccc(OCc3ccccc3)cn2)c(=O)[nH]/c1=C/c1ccc([N+](=O)[O-])cc1', 'SN12C renal', '> 100 µM'),
  ('Oc1cc(O)c2c(-c3c(O)c(-c4ccc(O)c(O)c4)[o+]c4cc(O)cc(O)c34)c(O)c(-c3ccc(O)c(O)c3)[o+]c2c1', 'SN12C renal', '> 100 µM'),
  ('CCC/C(=N/N=C(N)N)c1ccc(NC(=O)c2cc3cc(OC)ccc3[nH]2)cc1', 'SN12C renal', '33.7 µM'),
  ('C#CCOc1c(C(=O)OCC)c(=O)n(C)c2ccccc12', 'SN12C renal', '> 100 µM'),
  ('NC(=S)N/N=C(\Cc1nc2ccc(Cl)cc2[nH]c1=O)C(=O)Nc1ccc(Cl)cc1', 'SN12C renal', '> 100 µM'),
  ('O=c1ccc2nc(-c3ccccc3)nn(-c3ccccn3)c-2c1', 'SN12C renal', '37.9 µM'),
  ('C=C1C(=O)O[C@H]2[C@H]1CC/C(Cn1cc(-c3cc(C(F)(F)F)cc(C(F)(F)F)c3)nn1)=C\CC[C@@]1(C)O[C@@H]21', 'SN12C renal', '2.38 µM'),
  ('Cc1ccccc1N=Nc1ccc(NC(=O)c2ccnn2C)c(C)c1', 'SN12C renal', '> 100 µM'),
  ('COc1cc(NC(C)=O)ccc1C(=O)N/N=C/c1ccc(Cl)cc1Cl', 'SN12C renal', '64.6 µM'),
  ('CC(C)=CCNc1ncnc2nc[nH]c12', 'SN12C renal', '> 100 µM');

----------
Known TGI of a selection of compounds
Test system: SK-MEL-5 melanoma
Experiment: NCI tumour cell line growth inhibition, 48 h
Metric: TGI (µM)

INSERT INTO measurements (compound, unit_string, result_comparator, test_result) VALUES
  ('Nc1ncnc2c1nc(Cl)n2C1OC2COP(=O)(O)OC2C1O (centres undefined)', 'µM', '>', 300),
  ('CCOC(=O)C(/C=N\C(=S)Nc1ccc(Cl)c(Cl)c1)=C(/O)c1ccccc1', 'µM', '>', 100),
  ('Nc1c(Br)cc(Br)c2c1[nH]c(=O)c1ccccc12', 'µM', '>', 100),
  ('N=C(c1ccc2ccccc2c1)c1ccccc1Cc1ccccc1', 'µM', '>', 100),
  ('COc1cc(OC)c2c(=O)cc(-c3ccccc3F)[nH]c2c1', 'µM', '>', 100),
  ('Cn1nc2ccc3nccc(N4CCN(CCO)CC4)c3c2n1', 'µM', '>', 100),
  ('CC1=C2C[C@H]3[C@@H](CC[C@@H]4CC(NS(C)(=O)=O)CC[C@@]43C)[C@@H]2CC[C@@]2(C1)O[C@@H]1C[C@H](C)CN[C@H]1[C@H]2C (some centres undefined)', 'µM', '=', 5.63),
  ('O=c1c2ccccc2n(C[C@H]2CO2)c2ccccc12', 'µM', '=', 2.9),
  ('N#CC(C(=O)CCC(=O)C(C#N)c1ccccc1)c1ccccc1 (centres undefined)', 'µM', '>', 100),
  ('COc1cc(-c2nn(-c3cccc(NC(=O)Nc4cc(C(F)(F)F)cc(C(F)(F)F)c4)c3)cc2-c2ccncc2)ccc1Cl', 'µM', '=', 1.3),
  ('O=C1c2ccccc2NC(=O)C2C1C(c1ccccc1)CC2(O)c1ccccc1 (centres undefined)', 'µM', '>', 100),
  ('COC(=O)c1c2c(c(C)[n+]([O-])c1C)C(=O)C=C(NCc1ccc(F)c(Cl)c1)C2=O', 'µM', '=', 0.311),
  ('COc1cc2c3c(n(CCCN)c(=O)c2cc1OC)-c1cc2c(cc1/C3=C\CCN)OCO2', 'µM', '=', 11.8),
  ('COc1ccc(/C=C/C(=O)c2ccc(SC)cc2)cc1OC', 'µM', '=', 31.7),
  ('Ic1ccccc1-c1ccccc1', 'µM', '>', 100),
  ('CC(=O)OC[C@]1(O)CC[C@@]23CC1C[C@@H]2CCC1C(C)(C)CCC[C@@]13C (some centres undefined)', 'µM', '=', 28.2),
  ('CCCCc1c2c(nc3c1CCCC3O)CCCC2 (centres undefined)', 'µM', '>', 100),
  ('Cc1cc2nc3c4cc(N)ccc4n(CCN(C)C)c3nc2cc1C', 'µM', '=', 2.88),
  ('COc1ccccc1CCN=C1NC(=O)/C(=C/c2ccc3ncccc3c2)S1', 'µM', '=', 17.6),
  ('Cc1ccc(C)n1-n1c(Cc2ccccc2)n[nH]c1=O', 'µM', '>', 100),
  ('N#Cc1c(NN)nc(NN)c(C#N)c1-c1ccccc1', 'µM', '>', 100),
  ('CC(C)(O)CS(=O)(=O)Nc1ccc2c(c1)CCN(C(=O)COc1cccnc1)C2', 'µM', '>', 100),
  ('CC(=O)[CH-]C(=O)c1ccccc1.CC(=O)[CH-]C(=O)c1ccccc1.[Eu+3].[OH-].[OH3+]', 'µM', '>', 100),
  ('O=C1C(=O)c2ccccc2C(O)=C1CC=C(Br)Br', 'µM', '=', 16.6),
  ('O=C(NC(CS)C(=O)O)c1cccc2c(=O)c3ccccc3[nH]c12 (centres undefined)', 'µM', '>', 100),
  ('O=C(COc1ccc(OCC(=O)N2C(=O)CSC2=Nc2ccccc2)cc1)N1C(=O)CSC1=Nc1ccccc1', 'µM', '=', 33.3),
  ('CCC(CO)Nc1nc(NCc2ccccc2O)c2ncn(C(C)C)c2n1 (centres undefined)', 'µM', '=', 11.9),
  ('O=C(O)CN1CCN2CCOCCOCCN(CC1)CCN(CC(=O)O)CC2', 'µM', '>', 100),
  ('O=C(CSc1nc2ccccc2s1)c1sc2sc3ccccc3[n+]2c1[O-]', 'µM', '>', 100),
  ('O=C(/C=C/c1cccnc1)NCCCCC1CCCN(C(=O)c2ccccc2)C1 (centres undefined)', 'µM', '>', 100),
  ('Cc1ccccc1N=Nc1ccc(NC(=O)c2ccnn2C)c(C)c1', 'µM', '=', 72.2),
  ('CC(C)(C)C(=O)C(C(=O)C(C)(C)C)C(=O)C(C)(C)C', 'µM', '>', 100),
  ('O=C1c2cc3c(cc2-c2c1c1ccc(Cl)cc1c(=O)n2CCCNCCO)OCO3', 'µM', '=', 1.58),
  ('CCC/C(=N/N=C(N)N)c1ccc(NC(=O)c2cc3cc(OC)ccc3[nH]2)cc1', 'µM', '=', 27),
  ('CCOc1ccccc1NC(=O)CC1SC(=Nc2ccc([N+](=O)[O-])cc2)NC1=O (centres undefined)', 'µM', '=', 30),
  ('O=C1C(N2CCNCC2)=C(Cl)C(=O)c2ncccc21', 'µM', '>', 10),
  ('Nc1nc(N)c(C2=CCNCC2)c(=O)[nH]1', 'µM', '>', 100),
  ('O=C1C(Cl)=C(Nc2cccc(Cl)c2)C(=O)N1Cc1ccccc1Cl', 'µM', '=', 14.3),
  ('CCN=C(NNc1ccc([N+](=O)[O-])cc1)P(=O)(OC(C)C)OC(C)C', 'µM', '>', 100);
